These measurements were taken from ChEMBL document CHEMBL1154311.

# experimental target: Tyrosine-protein phosphatase non-receptor type 1 (Homo sapiens, UniProt P18031)
# Sequence (P18031 whole entry): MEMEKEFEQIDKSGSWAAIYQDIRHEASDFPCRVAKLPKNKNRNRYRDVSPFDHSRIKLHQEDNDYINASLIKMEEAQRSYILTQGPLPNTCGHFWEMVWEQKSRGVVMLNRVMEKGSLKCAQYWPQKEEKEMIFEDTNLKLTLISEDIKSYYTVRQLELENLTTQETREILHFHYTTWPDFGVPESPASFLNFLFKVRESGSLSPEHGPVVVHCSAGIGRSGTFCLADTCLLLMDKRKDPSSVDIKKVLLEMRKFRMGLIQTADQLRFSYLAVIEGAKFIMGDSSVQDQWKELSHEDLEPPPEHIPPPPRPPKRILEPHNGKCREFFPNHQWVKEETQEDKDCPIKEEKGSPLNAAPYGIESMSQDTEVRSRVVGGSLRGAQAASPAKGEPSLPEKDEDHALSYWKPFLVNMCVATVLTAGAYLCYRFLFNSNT
# assay summary: Inhibition of PTP1B mediated pNPP hydrolysis
# protocol conditions: read-out: IC50
pIC50: −log10 of the molar value.
metric name: pIC50

>>> df
                                   compound  experimental_result
0  CCCCCCCCCCCCCCCc1cc(O[C@@H]2O[C@H](CO)[C@@H](O)[C@H](O)[C@H]2O)cc(O)c1C(=O)Oc1cc(C)c(C(=O)O)c(O)c1 [AQUASTATIN A]                 6.72

1: CCCCCCCCCCCCCCCc1cc(O[C@@H]2O[C@H](CO)[C@@H](O)[C@H](O)[C@H]2O)cc(O)c1C(=O)Oc1cc(C)c(C(=O)OC)c(O)c1
2: CCCCCCCCCCCCCCCc1cc(O[C@@H]2O[C@H](CO)[C@@H](O)[C@H](O)[C@H]2O)cc(O)c1C(=O)O
3: CCCCCCCCCCCCCCCc1cc(O)cc(O)c1C(=O)Oc1cc(C)c(C(=O)O)c(O)c1
In this exercise, place the 3 compounds in ascending sequence of their recorded pIC50. Submit the labels in the order that the ranking request calls for.
1, 2, 3
